Measured drug sensitivity score, listed per entry for reference.
System: Calu-3
assay_summary: drug sensitivity score (DSS) for viability; higher = more toxic; extreme values may be limits of the assay
setup_conditions: 72 h
// keep it numeric: no unit symbol after the value

Below: 5 compounds and their reported drug sensitivity score.
item_smiles	value_reported
C[C@@]12CC[C@@H]3[C@@](CC[C@H]4[C@@]3(C)CCC[C@@]4(C)C(=O)O)(CC1=O)C2	0
CCCn1c(=O)c2nc(-c3ccccc3)[nH]c2n(CCC)c1=O	0
CC(=O)O[C@@]12CO[C@@H]1C[C@H](O)[C@@]1(C)C(=O)[C@H](O)C3=C(C)[C@@H](O)C[C@@](O)([C@@H](OC(=O)c4ccccc4)[C@H]21)C3(C)C	0
Nc1nc(Cl)nc2c1ncn2[C@@H]1O[C@H](CO)[C@@H](O)[C@H]1O	0.1
NCCc1c[nH]c2ccc(C(N)=O)cc12	0

Query: Provide drug sensitivity score value for the following compound: `Cc1cccc2c1CC[C@H](CN1CCC(c3c(Cl)cccc3Cl)CC1)C[C@@H]2O`
Result: 4.2

Query: Provide drug sensitivity score value for the following compound: `CC[C@H](CC[C@@H](C)[C@H]1CC[C@H]2[C@@H]3CC=C4C[C@@H](O)CC[C@]4(C)[C@H]3CC[C@]12C)C(C)C`
Result: 0

Numbers sourced from the supplement of paper PMC13380429.
